# experiment: physchem
# particulars: buffer, pH 7.4
I'd appreciate it if you could supply solubility kinetic at 24 h values for the items below.
Give bare numbers, in µM.

{"smiles.record": "CC(C)n1cnc(-c2ccc(F)cc2)c1-c1ccc(C(=O)Nc2ccc(N3CCN(C)CC3)cc2)o1", "solubility kinetic at 24 h (µM)": 40}
{"smiles.record": "CC(C)n1cnc(-c2ccc(F)cc2)c1-c1cccc(C(=O)Nc2ccc(N3CCN(C)CC3)cc2)n1", "solubility kinetic at 24 h (µM)": 105}

// moving on: another record for solubility kinetic at 24 h
Note solubility kinetic at 24 h for the molecule shown: CC(C)n1cnc(-c2ccc(F)cc2)c1-c1cccc(C(=O)Nc2ccc(N3CCN(CCO)CC3)cc2)n1 5.3

* * *

# experiment: Metabolic stability in human liver microsomes assessed as intrinsic clearance preincubated for 60 mins followed by NADPH addition and measured after 5 to 60 mins by LC-MS/MS analysis
# Format: ADME, Microsome
# particulars: time 65-120 min, read-out: CLH
experimental.readout: microsomal CLint (µL/min/mg)
Give bare numbers, in µL/min/mg.

Previously resolved entries follow.
{"smiles.record": "CC(C)n1cnc(-c2ccc(F)cc2)c1-c1cccc(C(=O)Nc2ccc(N3CCN(CCO)CC3)cc2)n1", "display.unit": "µL/min/mg", "assay.result": 141}
{"smiles.record": "CC(C)n1cnc(-c2ccc(F)cc2)c1-c1cccc(C(=O)Nc2ccc(N3CCN(C)CC3)cc2)n1", "display.unit": "µL/min/mg", "assay.result": 119}

// moving on: another record for microsomal CLint
Note microsomal CLint for the compound shown: CC(C)n1cnc(-c2ccc(F)cc2)c1-c1cccc(C(=O)Nc2ccc(CCO)cc2)n1 161

* * *

# Tested on: LX-2
# experiment: cells
# particulars: Homo sapiens
experimental.readout: log10(IC50) (log10 of the value in nM)
// do not treat as linear: log10 of IC50, unit nM

Previously resolved entries follow.
{"compound": "CC(C)n1cnc(-c2ccc(F)cc2)c1-c1nc(C(=O)Nc2ccc(N3CCNCC3)cc2)c[nH]1", "log10(IC50)": 1.81}
{"compound": "CC(C)n1cnc(-c2ccc(F)cc2)c1-c1nc(C(=O)Nc2ccc(N3CCN(C)C(=O)C3)cc2)c[nH]1", "log10(IC50)": 2.85}
{"compound": "CC(C)n1cnc(-c2ccc(F)cc2)c1-c1nc(C(=O)Nc2ccc(N3CC4CCC(C3)N4C)cc2)c[nH]1", "log10(IC50)": 1.89}
{"compound": "CC(C)n1cnc(-c2ccc(F)cc2)c1-c1nc(C(=O)Nc2ccc(N3CCN(CC(F)(F)F)CC3)cc2)c[nH]1", "log10(IC50)": 2.10}
{"compound": "CC1CN(c2ccc(NC(=O)c3c[nH]c(-c4c(-c5ccc(F)cc5)ncn4C(C)C)n3)cc2)CC(C)N1C (stereo not drawn)", "log10(IC50)": 1.85}

Hi, could you look up log10(IC50) for each item in my list?
1. CC(C)n1cnc(-c2ccc(F)cc2)c1-c1nc(C(=O)Nc2ccc(N(CCO)CCO)cc2)c[nH]1
2. CC(C)n1cnc(-c2ccc(F)cc2)c1-c1nc(C(=O)Nc2ccc(CCO)cc2)c[nH]1

1: 2.96; 2: 2.42

* * *

Assay system TRAF2 and NCK-interacting protein kinase (Homo sapiens, UniProt Q9UKE5); read-out recorded as pIC50.
One number for each entry, as −log10 of the molar value.

{"molecule": "CC(C)n1cnc(-c2ccc(F)cc2)c1-c1nc(C(=O)Nc2ccc(N3CCNCC3)cc2)c[nH]1", "pIC50": 7.95}
{"molecule": "CC(C)n1cnc(-c2ccc(F)cc2)c1-c1cccc(C(=O)Nc2ccc(CCO)cc2)n1", "pIC50": 8.24}
{"molecule": "CC1CN(c2ccc(NC(=O)c3c[nH]c(-c4c(-c5ccc(F)cc5)ncn4C(C)C)n3)cc2)CC(C)N1C (centres undefined)", "pIC50": 7.74}

Identify measured pIC50 obtained with TRAF2 and NCK-interacting protein kinase (Homo sapiens, UniProt Q9UKE5) for CC(C)n1cnc(-c2ccc(F)cc2)c1-c1nc(C(=O)Nc2ccc(N3CCN(C(N)=O)CC3)cc2)c[nH]1 . 6.70

* * *

# target.entity: TRAF2 and NCK-interacting protein kinase (Homo sapiens, UniProt Q9UKE5)
# Sequence (Q9UKE5 whole entry): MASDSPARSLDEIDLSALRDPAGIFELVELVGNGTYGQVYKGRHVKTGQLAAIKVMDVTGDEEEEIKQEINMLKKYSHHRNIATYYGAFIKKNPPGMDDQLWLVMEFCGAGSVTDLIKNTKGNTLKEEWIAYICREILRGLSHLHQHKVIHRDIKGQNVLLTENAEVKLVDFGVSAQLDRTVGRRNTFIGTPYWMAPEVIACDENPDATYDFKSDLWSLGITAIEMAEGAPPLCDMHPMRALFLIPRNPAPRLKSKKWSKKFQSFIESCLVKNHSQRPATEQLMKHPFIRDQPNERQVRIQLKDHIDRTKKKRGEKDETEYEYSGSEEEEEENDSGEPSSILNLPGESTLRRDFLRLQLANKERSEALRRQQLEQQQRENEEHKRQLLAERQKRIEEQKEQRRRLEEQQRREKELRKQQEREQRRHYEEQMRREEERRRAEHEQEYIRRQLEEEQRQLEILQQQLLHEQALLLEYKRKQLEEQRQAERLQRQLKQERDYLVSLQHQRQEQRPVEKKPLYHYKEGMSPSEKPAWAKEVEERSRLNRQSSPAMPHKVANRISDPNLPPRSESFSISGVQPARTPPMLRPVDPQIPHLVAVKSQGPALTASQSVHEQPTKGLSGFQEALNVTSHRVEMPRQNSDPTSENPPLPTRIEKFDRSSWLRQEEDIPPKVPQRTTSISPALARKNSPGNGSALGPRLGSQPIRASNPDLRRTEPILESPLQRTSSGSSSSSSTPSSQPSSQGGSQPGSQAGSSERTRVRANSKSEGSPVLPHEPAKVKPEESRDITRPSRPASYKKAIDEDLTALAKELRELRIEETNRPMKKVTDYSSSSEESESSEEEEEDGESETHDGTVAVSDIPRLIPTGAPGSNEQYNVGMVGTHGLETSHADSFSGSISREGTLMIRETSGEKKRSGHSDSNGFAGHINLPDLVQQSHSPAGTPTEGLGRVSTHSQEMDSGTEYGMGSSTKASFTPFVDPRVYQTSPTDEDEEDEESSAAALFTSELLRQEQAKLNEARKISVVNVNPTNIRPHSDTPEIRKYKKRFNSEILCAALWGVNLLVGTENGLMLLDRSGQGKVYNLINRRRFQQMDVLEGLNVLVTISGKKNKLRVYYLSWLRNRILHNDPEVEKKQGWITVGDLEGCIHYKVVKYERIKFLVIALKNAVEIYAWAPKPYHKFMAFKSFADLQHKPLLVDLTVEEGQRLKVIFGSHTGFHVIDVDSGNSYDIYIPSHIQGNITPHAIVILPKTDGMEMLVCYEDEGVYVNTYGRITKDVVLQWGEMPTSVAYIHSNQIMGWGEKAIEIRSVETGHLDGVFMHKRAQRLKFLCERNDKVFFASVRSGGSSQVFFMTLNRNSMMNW
experimental.readout: IC50 (nM)
One number for each entry, in nM.

Identify measured IC50 obtained with TRAF2 and NCK-interacting protein kinase (Homo sapiens, UniProt Q9UKE5) for Cn1ccc2cc(-c3ccc4c(c3)SCCN(Cc3ccc(F)cc3)C4=O)cnc21 . 26

* * *

# experiment: Metabolic stability in human liver microsomes assessed as intrinsic clearance preincubated for 60 mins followed by NADPH addition and measured after 5 to 60 mins by LC-MS/MS analysis
# Assay type: ADME, Microsome
# particulars: time 65-120 min, read-out: CLH
experimental.readout: microsomal CLint

Previously resolved entries follow.
{"smiles.record": "CC(C)n1cnc(-c2ccc(F)cc2)c1-c1ccc(C(=O)Nc2ccc(N3CCN(C)CC3)cc2)o1", "assay.result": "> 150 µL/min/mg"}
{"smiles.record": "CC(C)n1cnc(-c2ccc(F)cc2)c1-c1cccc(C(=O)Nc2ccc(CCC(=O)O)cc2)n1", "assay.result": "< 9.6 µL/min/mg"}

// moving on: another record for microsomal CLint
Note microsomal CLint for the molecule shown: CC(C)n1cnc(-c2ccc(F)cc2)c1-c1ccc(C(=O)Nc2ccc(CCO)cc2)o1 > 150 µL/min/mg

Values were extracted from ChEMBL document CHEMBL6127114.
